- SYSTEM: human CB2 receptors (Homo sapiens (Human), UniProt P34972)
- Sequence (P34972 whole entry): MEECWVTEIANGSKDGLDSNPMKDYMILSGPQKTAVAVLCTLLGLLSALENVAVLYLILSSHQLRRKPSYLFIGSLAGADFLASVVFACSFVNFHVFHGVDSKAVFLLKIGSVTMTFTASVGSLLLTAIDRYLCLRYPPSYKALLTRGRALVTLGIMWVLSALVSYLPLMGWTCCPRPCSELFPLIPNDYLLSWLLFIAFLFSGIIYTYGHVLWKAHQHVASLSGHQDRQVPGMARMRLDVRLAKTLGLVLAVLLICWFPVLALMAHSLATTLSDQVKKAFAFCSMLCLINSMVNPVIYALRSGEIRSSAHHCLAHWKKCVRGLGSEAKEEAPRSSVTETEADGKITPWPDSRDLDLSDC
- ASSAY_REMARKS: cAMP assay, CHO cells expressing human CB2 receptors
- Assay type: cell-based
- PARTICULARS: functional cAMP assay, CHO cells expressing human CB2; read-out: human CB2 EC50
Assign pEC50 to each entry below.
Answers are plain numbers, as −log10 of the molar value.

{"COMPOUND": "CC(C)(CC(N)=O)NC(=O)c1ccc(N2CC(F)(F)C2)c(OCC2CC2)n1", "pEC50": 8.04}
{"COMPOUND": "NC(=O)CC1(NC(=O)c2ccc(N3CC(F)(F)C3)c(OCC3CC3)n2)CCC1", "pEC50": 9.22}
{"COMPOUND": "NC(=O)CC1(NC(=O)c2ccc(N3CC(F)(F)C3)c(OCC3CC3)n2)CCNC1 (stereo not shown)", "pEC50": 7.17}

Continue with the next compound.
Respond only with pEC50 recorded for `CNC(=O)CC(C)(C)NC(=O)c1ccc(N2CC(F)(F)C2)c(OCC2CC2)n1`
6.76
